# maps each entry to its EC50
Target: Retinoic acid receptor RXR-gamma (Homo sapiens, UniProt P48443)
Sequence (P48443 whole entry): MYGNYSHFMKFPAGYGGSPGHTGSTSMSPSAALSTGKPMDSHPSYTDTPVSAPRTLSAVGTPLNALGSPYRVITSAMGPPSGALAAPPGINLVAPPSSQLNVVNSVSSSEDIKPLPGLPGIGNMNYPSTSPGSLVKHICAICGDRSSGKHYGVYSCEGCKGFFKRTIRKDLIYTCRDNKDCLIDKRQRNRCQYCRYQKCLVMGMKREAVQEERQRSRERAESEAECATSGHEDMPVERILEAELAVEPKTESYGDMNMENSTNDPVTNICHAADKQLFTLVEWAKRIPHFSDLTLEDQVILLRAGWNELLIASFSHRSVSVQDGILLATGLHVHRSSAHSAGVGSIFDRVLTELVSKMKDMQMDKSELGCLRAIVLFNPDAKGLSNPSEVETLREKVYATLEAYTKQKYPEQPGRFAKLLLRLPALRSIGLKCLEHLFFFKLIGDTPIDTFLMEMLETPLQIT
Assay: Transcriptional activation of Retinoid X receptor RXR gamma
Report the figure in nM without appending any unit label.

A selection of reference data follows.
Cc1cc2c(cc1Sc1ccc(C(=O)O)cn1)C(C)(C)CCC2(C)C    42
Cc1cc2c(cc1Sc1ncc(C(=O)O)s1)C(C)(C)CCC2(C)C    1900
Cc1cc2c(cc1[S+]([O-])c1ccc(C(=O)O)cc1)C(C)(C)CCC2(C)C (centres undefined)    1600

**Query** // returns reported EC50 for input Cc1cc2c(cc1Sc1ccc(C(=O)O)cc1)C(C)(C)CCC2(C)C
**Result** 280

###

Molecular target: Retinoic acid receptor beta (Mus musculus, UniProt P22605)
Sequence (P22605 whole entry): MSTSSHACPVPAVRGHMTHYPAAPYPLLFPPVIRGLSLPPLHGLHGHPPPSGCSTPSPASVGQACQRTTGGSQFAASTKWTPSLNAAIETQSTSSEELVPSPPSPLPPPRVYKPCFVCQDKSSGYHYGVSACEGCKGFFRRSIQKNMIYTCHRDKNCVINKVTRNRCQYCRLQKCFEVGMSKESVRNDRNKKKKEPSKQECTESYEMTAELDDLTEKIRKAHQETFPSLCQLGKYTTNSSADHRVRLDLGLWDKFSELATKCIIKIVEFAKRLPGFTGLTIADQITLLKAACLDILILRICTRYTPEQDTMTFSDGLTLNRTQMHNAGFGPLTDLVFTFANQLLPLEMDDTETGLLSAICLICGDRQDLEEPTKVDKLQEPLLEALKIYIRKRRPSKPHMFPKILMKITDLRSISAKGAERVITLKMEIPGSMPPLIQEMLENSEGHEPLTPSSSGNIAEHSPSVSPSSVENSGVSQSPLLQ
Test: Dissociation constant for binding to Retinoic acid receptor beta
pKd: −log10 of the molar value.
pKd values for the compounds below.

Recorded results for 2 compounds are shown here.
Cc1cc2c(cc1[S+]([O-])c1ccc(C(=O)O)cc1)C(C)(C)CCC2(C)C (stereo not drawn)    < 5.00
Cc1cc2c(cc1Sc1ccc(C(=O)O)cc1)C(C)(C)CCC2(C)C    < 5.00

Okay, next one:
**Query** GET /values?readout=pKd&item= Cc1cc2c(cc1S(=O)(=O)c1ccc(C(=O)O)cc1)C(C)(C)CCC2(C)C
**Result** < 5.00

###

Target: UniProt:P11416
Sequence (P11416 whole entry): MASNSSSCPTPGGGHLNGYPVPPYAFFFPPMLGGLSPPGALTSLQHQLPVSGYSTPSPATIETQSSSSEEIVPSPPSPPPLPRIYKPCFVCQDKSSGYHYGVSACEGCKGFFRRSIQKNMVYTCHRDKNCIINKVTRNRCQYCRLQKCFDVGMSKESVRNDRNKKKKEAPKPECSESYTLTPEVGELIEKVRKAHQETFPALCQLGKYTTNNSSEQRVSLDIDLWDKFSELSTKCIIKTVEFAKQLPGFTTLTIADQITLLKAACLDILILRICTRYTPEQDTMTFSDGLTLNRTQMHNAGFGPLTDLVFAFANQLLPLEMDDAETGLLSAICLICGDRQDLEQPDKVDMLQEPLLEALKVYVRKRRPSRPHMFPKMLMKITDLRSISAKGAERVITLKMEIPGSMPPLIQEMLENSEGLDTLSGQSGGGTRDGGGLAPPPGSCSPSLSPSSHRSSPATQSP
Test: Dissociation constant for binding to Retinoic acid receptor alpha
Assay type: single protein
Readout Kind: Kd

Known Kd results, listed for orientation:
Cc1cc2c(cc1[S+]([O-])c1ccc(C(=O)O)cc1)C(C)(C)CCC2(C)C (stereo not drawn)    > 10 µM
Cc1cc2c(cc1S(=O)(=O)c1ccc(C(=O)O)cc1)C(C)(C)CCC2(C)C    > 10 µM

**Query** // Kd lookup, key: Cc1cc2c(cc1Sc1ccc(C(=O)O)cc1)C(C)(C)CCC2(C)C
**Result** > 10 µM
